- experiment: Solubility in acetate buffer (25 mM, pH 5), assayed by HPLC
- Format: physicochemical
- measurement_setup: acetate buffer, 25 °C, pH 5, aqueous buffer, thermodynamic from solid, Form 2; acetate buffer 25 mM pH 5, 25° C.; NaCl (I = 0.1); Day 1
measured_quantity: solubility at 1 day (µg/mL)
Answers are plain numbers, in µg/mL.

Given the entry O=C(O)CSc1nnc(Br)n1-c1ccc(C2CC2)c2ccccc12 [Form 2] , report its measured solubility at 1 day.
219

====

- experiment: Solubility in acetate buffer (25 mM, pH 5), assayed by HPLC
- Type: physicochemical
- measurement_setup: acetate buffer, 25 °C, pH 5, aqueous buffer, thermodynamic from solid, Form 1; acetate buffer 25 mM pH 5, 25° C.; NaCl (I = 0.1); Day 1
measured_quantity: solubility at 1 day (µg/mL)
Give bare numbers, in µg/mL.

Given the entry O=C(O)CSc1nnc(Br)n1-c1ccc(C2CC2)c2ccccc12 [Form 1] , report its measured solubility at 1 day.
300
